Target: cGMP-dependent protein kinase (Eimeria tenella)
Sequence (Q8MMZ8 whole entry): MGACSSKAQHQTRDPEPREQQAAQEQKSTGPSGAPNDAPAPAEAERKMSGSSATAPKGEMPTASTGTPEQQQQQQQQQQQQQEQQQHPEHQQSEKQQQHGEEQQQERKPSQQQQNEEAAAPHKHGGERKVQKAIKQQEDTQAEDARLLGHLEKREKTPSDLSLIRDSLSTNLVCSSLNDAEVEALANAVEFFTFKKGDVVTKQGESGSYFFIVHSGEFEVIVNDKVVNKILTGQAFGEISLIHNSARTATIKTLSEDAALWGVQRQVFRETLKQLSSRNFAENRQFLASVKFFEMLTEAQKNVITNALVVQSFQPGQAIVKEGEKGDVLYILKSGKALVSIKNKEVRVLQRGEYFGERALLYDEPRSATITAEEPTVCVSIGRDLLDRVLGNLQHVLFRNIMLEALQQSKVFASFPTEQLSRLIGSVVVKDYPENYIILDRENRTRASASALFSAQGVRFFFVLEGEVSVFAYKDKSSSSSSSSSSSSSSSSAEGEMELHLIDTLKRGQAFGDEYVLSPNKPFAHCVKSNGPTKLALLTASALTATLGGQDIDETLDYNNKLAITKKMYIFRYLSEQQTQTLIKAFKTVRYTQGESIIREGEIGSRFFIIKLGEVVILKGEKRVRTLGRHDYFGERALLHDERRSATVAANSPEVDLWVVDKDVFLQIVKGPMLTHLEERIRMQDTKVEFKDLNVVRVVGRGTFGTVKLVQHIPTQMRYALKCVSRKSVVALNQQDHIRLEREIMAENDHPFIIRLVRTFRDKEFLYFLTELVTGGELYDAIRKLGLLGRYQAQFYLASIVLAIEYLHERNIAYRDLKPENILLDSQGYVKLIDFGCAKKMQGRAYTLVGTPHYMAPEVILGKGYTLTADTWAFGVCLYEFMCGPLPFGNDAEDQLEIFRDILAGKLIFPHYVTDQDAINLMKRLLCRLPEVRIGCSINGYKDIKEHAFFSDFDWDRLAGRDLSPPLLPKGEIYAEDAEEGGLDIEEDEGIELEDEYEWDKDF
Experiment: In vitro inhibition of Eimeria tenella cGMP-dependent protein kinase
METRIC: IC50 (nM)

- CN1CCC(c2cc(-c3ccncc3)c(-c3ccc(F)c(F)c3)[nH]2)CC1: 2

I. CC(=O)CN1CCC(c2cc(-c3ccncc3)c(-c3ccc(F)cc3)[nH]2)CC1
II. CN1CCC(c2nc(-c3ccc(F)cc3)c(-c3ccncc3)s2)CC1
III. CN1CCC(c2cc(-c3ccncc3)c(-c3ccoc3)[nH]2)CC1
Rank items: key IC50, increasing. Answer by listing the labels in the requested order.
I, II, III

* * *

Observed IC50, system cGMP-dependent protein kinase (Eimeria tenella, UniProt Q8MMZ8).
METRIC: IC50 (nM)

Sample records with IC50:
- CN1CCC(c2cc(-c3ccncc3)c(-c3ccc(F)cc3)nn2)CC1: 1000
- Cc1cnccc1-c1cc(C2CCN(C)CC2)[nH]c1-c1ccc(F)cc1: 1.7
- CN1CCC(c2cc(-c3ccncc3)c(-c3ccc(S(C)(=O)=O)cc3)[nH]2)CC1: 42
- CN1CCC(c2cc(-c3ccncc3)c(-c3ccc(F)cc3)s2)CC1: 4.2
- OCCCN1CCC(c2cc(-c3ccncc3)c(-c3ccc(F)cc3)[nH]2)CC1: 0.53
- OC1(CN2CCC(c3cc(-c4ccncc4)c(-c4ccc(F)cc4)[nH]3)CC2)CC1: 1.1

a. CCN1CCC(c2cc(-c3ccncc3)c(-c3ccc(F)cc3)[nH]2)CC1
b. Cc1c(C2CCN(C)CC2)[nH]c(-c2ccc(F)cc2)c1-c1ccncc1
c. CN1CCC(c2cc(-c3ccncc3)c(-c3cccc(F)c3)[nH]2)CC1
d. CN1CCC(c2cc(-c3ccncc3)c(-c3ccsc3)[nH]2)CC1
e. CN1CCC(c2cc(-c3ccncc3)c(-c3ccc(F)cc3)o2)CC1
Order the records so the highest IC50 appears first and the lowest last. // format: requested-order list of labels
d, c, e, b, a

Provenance of the data: ChEMBL document CHEMBL1140243
